Listed here: compounds with reported Kd for RrgA SPEC6B (Streptococcus pneumoniae).
Reported endpoint: Kd (nM)

>>> recorded_number("CC(=O)N[C@H]1[C@@H](O[C@H]2[C@@H](O)[C@@H](CO)OC(O)[C@@H]2O[C@@H]2O[C@@H](C)[C@@H](O)[C@@H](O)[C@@H]2O)O[C@H](CO)[C@H](O)[C@@H]1O (stereo partly shown) [7K, Blood group A tri]")
1400
>>> recorded_number("CC(=O)N[C@H]1[C@@H](O[C@H]2[C@@H](O)[C@@H](CO)O[C@@H](O[C@H]3[C@@H](O)[C@@H](CO)OC(O)[C@@H]3NC(C)=O)[C@@H]2O[C@@H]2O[C@@H](C)[C@@H](O)[C@@H](O)[C@@H]2O)O[C@H](CO)[C@H](O)[C@@H]1O (stereo partly shown) [Blood group A type3/4]")
644
>>> recorded_number("CC(=O)N[C@H]1[C@H](O[C@H]2[C@@H](O)[C@@H](CO)O[C@@H](O[C@H]3[C@H](O)[C@@H](O)C(O)O[C@@H]3CO)[C@@H]2O)O[C@H](CO)[C@@H](O)[C@@H]1O[C@@H]1O[C@H](CO)[C@H](O)[C@H](O)[C@H]1O (stereo partly shown) [1G, Lacto-N-tetraose]")
869
>>> recorded_number("CC(=O)N[C@H]1C(O)O[C@H](CO)[C@@H](O[C@@H]2O[C@H](CO)[C@H](O)[C@H](O)[C@H]2O)[C@@H]1O[C@@H]1O[C@@H](C)[C@@H](O)[C@@H](O)[C@@H]1O (stereo partly shown) [Lewis X]")
363

* * *

molecular target: RrgA TIGR4 (RrgA T4) (Streptococcus pneumoniae, UniProt A0A0H2UNT6); construct: gene SP_0462; assay: SPR (Biacore T100); format: binding; conditions: read-out: RrgA TIGR4; free oligosaccharide; protein immobilised on CM5 chip; glycans 160 nM to 100 µM
Sequence (A0A0H2UNT6 entry or part of it): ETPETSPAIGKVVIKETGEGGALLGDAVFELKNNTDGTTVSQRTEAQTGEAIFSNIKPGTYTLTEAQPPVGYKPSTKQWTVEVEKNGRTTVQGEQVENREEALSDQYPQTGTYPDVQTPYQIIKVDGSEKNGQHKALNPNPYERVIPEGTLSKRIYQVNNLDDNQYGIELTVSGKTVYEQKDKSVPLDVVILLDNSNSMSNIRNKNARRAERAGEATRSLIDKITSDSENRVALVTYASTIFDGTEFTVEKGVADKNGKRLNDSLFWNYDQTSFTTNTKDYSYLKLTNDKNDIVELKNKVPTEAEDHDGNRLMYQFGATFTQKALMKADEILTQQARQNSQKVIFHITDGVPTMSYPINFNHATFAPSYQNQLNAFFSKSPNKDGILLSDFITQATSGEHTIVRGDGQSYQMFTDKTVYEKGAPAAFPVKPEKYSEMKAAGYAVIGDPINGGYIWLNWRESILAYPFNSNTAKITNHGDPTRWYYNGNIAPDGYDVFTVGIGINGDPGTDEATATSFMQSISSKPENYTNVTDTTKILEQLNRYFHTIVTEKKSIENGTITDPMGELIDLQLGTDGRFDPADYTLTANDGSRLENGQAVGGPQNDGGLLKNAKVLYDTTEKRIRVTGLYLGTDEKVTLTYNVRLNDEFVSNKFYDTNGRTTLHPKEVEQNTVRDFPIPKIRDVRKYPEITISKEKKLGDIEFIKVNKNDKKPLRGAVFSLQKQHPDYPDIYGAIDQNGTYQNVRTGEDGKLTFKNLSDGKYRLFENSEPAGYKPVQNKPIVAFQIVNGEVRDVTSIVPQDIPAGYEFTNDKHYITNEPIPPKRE
Reported endpoint: Kd (nM)

>>> recorded_number("CC(=O)N[C@H]1[C@@H](O[C@H]2[C@@H](O)[C@@H](CO)O[C@@H](O[C@H]3[C@@H](O)[C@@H](CO)OC(O)[C@@H]3NC(C)=O)[C@@H]2O[C@@H]2O[C@@H](C)[C@@H](O)[C@@H](O)[C@@H]2O)O[C@H](CO)[C@H](O)[C@@H]1O (some centres unmarked)")
871
>>> recorded_number("CC(=O)N[C@H]1[C@@H](O[C@H]2[C@@H](O)[C@@H](CO)OC(O)[C@@H]2O[C@@H]2O[C@@H](C)[C@@H](O)[C@@H](O)[C@@H]2O)O[C@H](CO)[C@H](O)[C@@H]1O (some centres unmarked)")
916
>>> recorded_number("CC(=O)N[C@H]1[C@H](O[C@H]2[C@@H](O)[C@@H](CO)O[C@@H](O[C@H]3[C@H](O)[C@@H](O)C(O)O[C@@H]3CO)[C@@H]2O)O[C@H](CO)[C@@H](O)[C@@H]1O[C@@H]1O[C@H](CO)[C@H](O)[C@H](O)[C@H]1O (some centres unmarked)")
1030
>>> recorded_number("CC(=O)N[C@H]1[C@H](O[C@H]2[C@H](O)[C@@H](NC(C)=O)C(O)O[C@@H]2CO)O[C@H](CO)[C@@H](O)[C@@H]1O (some centres unmarked)")
409
>>> recorded_number("OC[C@H]1O[C@H](O[C@H]2[C@H](O)[C@@H](O)C(O)O[C@@H]2CO)[C@H](O)[C@@H](O)[C@@H]1O (some centres unmarked)")
1160

* * *

molecular target: RrgA SPEC6B (Streptococcus pneumoniae, UniProt A7KT31)
Sequence (A7KT31 entry or part of it): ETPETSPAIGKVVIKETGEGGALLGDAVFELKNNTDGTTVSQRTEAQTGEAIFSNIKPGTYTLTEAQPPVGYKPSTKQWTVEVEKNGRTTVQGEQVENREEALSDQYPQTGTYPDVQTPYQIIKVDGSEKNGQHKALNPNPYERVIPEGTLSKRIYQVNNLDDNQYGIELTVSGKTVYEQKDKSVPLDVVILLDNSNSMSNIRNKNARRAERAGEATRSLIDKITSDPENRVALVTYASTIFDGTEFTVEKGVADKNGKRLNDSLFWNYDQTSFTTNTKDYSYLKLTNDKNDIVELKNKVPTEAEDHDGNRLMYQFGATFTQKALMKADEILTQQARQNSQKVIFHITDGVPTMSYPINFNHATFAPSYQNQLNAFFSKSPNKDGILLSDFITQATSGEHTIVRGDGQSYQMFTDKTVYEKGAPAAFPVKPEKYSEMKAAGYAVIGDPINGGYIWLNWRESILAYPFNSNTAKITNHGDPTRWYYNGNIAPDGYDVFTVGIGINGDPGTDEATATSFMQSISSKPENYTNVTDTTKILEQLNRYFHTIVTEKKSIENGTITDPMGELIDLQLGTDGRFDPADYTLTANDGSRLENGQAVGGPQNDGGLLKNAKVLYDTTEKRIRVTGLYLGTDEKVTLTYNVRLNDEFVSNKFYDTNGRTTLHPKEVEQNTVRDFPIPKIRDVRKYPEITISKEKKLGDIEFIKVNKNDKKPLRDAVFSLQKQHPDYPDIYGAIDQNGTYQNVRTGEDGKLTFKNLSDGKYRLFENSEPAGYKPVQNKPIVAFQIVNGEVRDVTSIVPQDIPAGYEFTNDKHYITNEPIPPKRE
pKd: −log10 of the molar value.
compounds and their reported pKd
Reported endpoint: pKd

>>> recorded_number("OC[C@H]1O[C@H](O[C@H]2[C@H](O)[C@@H](O)C(O)O[C@@H]2CO)[C@H](O)[C@@H](O)[C@@H]1O (stereo partly shown)")
6.02
>>> recorded_number("CC(=O)N[C@H]1C(O)O[C@H](CO)[C@H](O)[C@@H]1O[C@@H]1O[C@H](CO)[C@H](O)[C@H](O)[C@H]1O[C@@H]1O[C@@H](C)[C@@H](O)[C@@H](O)[C@@H]1O (stereo partly shown)")
6.45
>>> recorded_number("CC(=O)N[C@H]1[C@H](O[C@H]2[C@H](O)[C@@H](NC(C)=O)C(O)O[C@@H]2CO)O[C@H](CO)[C@@H](O)[C@@H]1O (stereo partly shown)")
6.37
>>> recorded_number("OC[C@H]1O[C@@H](O[C@H]2[C@H](O)[C@@H](O)C(O)O[C@@H]2CO)[C@H](O)[C@@H](O)[C@@H]1O (stereo partly shown)")
6.23

* * *

molecular target: RrgA TIGR4 (RrgA T4) (Streptococcus pneumoniae); construct: gene SP_0462; experiment: SPR (Biacore T100); type: binding
Reported endpoint: Kd

>>> result("CC(=O)N[C@H]1C(O)O[C@H](CO)[C@@H](O[C@@H]2O[C@H](CO)[C@H](O)[C@H](O)[C@H]2O)[C@@H]1O[C@@H]1O[C@@H](C)[C@@H](O)[C@@H](O)[C@@H]1O (stereo partly shown)")
"434 nM"
